- test: Rat pharmacokinetics of OA and OC in plasma and urine after oral OA alone or with CMF1
- Assay type: in vivo, Sprague-Dawley rats
- condition.notes: male, Sprague-Dawley, in vivo, po, 30 mg/kg, oral, Group 1: OA alone 30 mg/kg, bid for 5 days, read-out: t 1/2, λz

{"compound": "CCC(CC)O[C@@H]1C=C(C(=O)O)C[C@H](N)[C@H]1NC(C)=O [OC, oseltamivir carboxylate]", "half-life, h": 2.53}

----------
- test: Rat pharmacokinetics of OA and OC in plasma and urine after oral OA alone or with CMF1
- Format: in vivo, Sprague-Dawley rats
- condition.notes: male, Sprague-Dawley, in vivo, po, 30 mg/kg, oral, Group 1: OA alone 30 mg/kg, bid for 5 days, read-out: CL renal

{"compound": "CCC(CC)O[C@@H]1C=C(C(=O)O)C[C@H](N)[C@H]1NC(C)=O [OC, oseltamivir carboxylate]", "CL renal / mL/min": 6.33}

----------
- test: Human crossover pharmacokinetic interaction study of WM (Tamiflu) alone or with CMF1
- Format: in vivo, human (Chinese male healthy volunteers)
- condition.notes: male, human, in vivo, 75 mg, human, day 5, WM alone, n = 14, arithmetic mean ± SD; read-out: AUC0–12 h

{"molecule": "CCC(CC)O[C@@H]1C=C(C(=O)O)C[C@H](N)[C@H]1NC(C)=O [OC, oseltamivir carboxylate]", "unit.annotation": "ng·h/mL", "AUC(0-t)": 4580}

----------
- test: Rat pharmacokinetics of OA and OC in plasma and urine after oral OA alone or with CMF1
- Format: in vivo, Sprague-Dawley rats
- condition.notes: male, Sprague-Dawley, in vivo, po, 30 mg/kg, oral, Group 3: OA 30 mg/kg + CMF1 at 3.90 mg/kg, bid for 5 days, read-out: C max
measured.attribute: Cmax (ng/mL)

{"molecule": "CCC(CC)O[C@@H]1C=C(C(=O)O)C[C@H](N)[C@H]1NC(C)=O [OC, oseltamivir carboxylate]", "measurement": 1190}

----------
- test: Human crossover pharmacokinetic interaction study of WM (Tamiflu) alone or with CMF1
- Assay type: in vivo, human (Chinese male healthy volunteers)
- condition.notes: male, in vivo; human, day 5, WM + CMF1, n = 14, arithmetic mean ± SD; read-out: T max

{"molecule": "CCC(CC)O[C@@H]1C=C(C(=O)O)C[C@H](N)[C@H]1NC(C)=O [OC, oseltamivir carboxylate]", "Tmax": "3.5 h"}

----------
- test: Human crossover pharmacokinetic interaction study of WM (Tamiflu) alone or with CMF1
- Type: in vivo, human (Chinese male healthy volunteers)
- condition.notes: male, human, in vivo, human, day 5, WM + CMF1, n = 14, arithmetic mean ± SD; read-out: C max
measured.attribute: Cmax (ng/mL)

{"compound": "CCC(CC)O[C@@H]1C=C(C(=O)O)C[C@H](N)[C@H]1NC(C)=O [OC, oseltamivir carboxylate]", "unit.annotation": "ng/mL", "measurement": 487}

----------
- test: Human crossover pharmacokinetic interaction study of WM (Tamiflu) alone or with CMF1
- Assay type: in vivo, human (Chinese male healthy volunteers)
- condition.notes: male, human, in vivo, human, day 5, WM + CMF1 (10 g per dose), n = 14, arithmetic mean ± SD; read-out: C trough (plasma concentration at 12 h postdose)
measured.attribute: concentration at 12 h

{"compound": "CCC(CC)O[C@@H]1C=C(C(=O)O)C[C@H](N)[C@H]1NC(C)=O [OC, oseltamivir carboxylate]", "measured.attribute": "concentration at 12 h", "measurement": "195 ng/mL"}

----------
- test: Human crossover pharmacokinetic interaction study of WM (Tamiflu) alone or with CMF1
- Format: in vivo, human (Chinese male healthy volunteers)
- condition.notes: male, human, in vivo, 75 mg, human, WM alone, n = 14; read-out: AUC0–12 h, geometric mean
- Protocol: Normal healthy Chinese male subjects aged 20–45 years were recruited in this study. […] The study was conducted using a single-center, randomized, open-labeled, multiple dose (5 days), two-treatment, two-period, two-sequence crossover design. […] Urine was also collected (and the volume was recorded) at pre-dose, 0–4, 4–8, and 8–12 h intervals. […] Difference in the median T max between both treatments was evaluated using Wilcoxon signed-rank test. […]

{"compound": "CCC(CC)O[C@@H]1C=C(C(=O)O)C[C@H](N)[C@H]1NC(C)=O [OC, oseltamivir carboxylate]", "AUC(0-t), ng·h/mL": 4450}

----------
- test: Human crossover pharmacokinetic interaction study of WM (Tamiflu) alone or with CMF1
- Assay type: in vivo, human (Chinese male healthy volunteers)
- condition.notes: male, human, in vivo, AUC0–12 h, geometric mean
measured.attribute: AUC(0-t) (ng·h/mL)

{"smiles.str": "CCOC(=O)C1=C[C@@H](OC(CC)CC)[C@H](NC(C)=O)[C@@H](N)C1", "measurement": 130}

----------
- test: Human crossover pharmacokinetic interaction study of WM (Tamiflu) alone or with CMF1
- Format: in vivo, human (Chinese male healthy volunteers)
- condition.notes: male, human, in vivo, 75 mg, human, approximate value; read-out: renal clearance (converted)

{"compound": "CCC(CC)O[C@@H]1C=C(C(=O)O)C[C@H](N)[C@H]1NC(C)=O [OC, oseltamivir carboxylate]", "CL renal": "~267 mL/min"}

----------
- test: Rat pharmacokinetics of OA and OC in plasma and urine after oral OA alone or with CMF1
- Format: in vivo, Sprague-Dawley rats
- condition.notes: male, Sprague-Dawley, in vivo, po, 30 mg/kg, t 1/2, λz

{"smiles.str": "CCOC(=O)C1=C[C@@H](OC(CC)CC)[C@H](NC(C)=O)[C@@H](N)C1", "unit.annotation": "h", "half-life": 1.72}

----------
- test: Rat pharmacokinetics of OA and OC in plasma and urine after oral OA alone or with CMF1
- Format: in vivo, Sprague-Dawley rats
- condition.notes: male, Sprague-Dawley, in vivo, po, 30 mg/kg, CL/F
measured.attribute: CL/F (mL/min/kg)

{"smiles.str": "CCOC(=O)C1=C[C@@H](OC(CC)CC)[C@H](NC(C)=O)[C@@H](N)C1", "measurement": 158}

----------
- test: Rat pharmacokinetics of OA and OC in plasma and urine after oral OA alone or with CMF1
- Format: in vivo, Sprague-Dawley rats
- condition.notes: male, Sprague-Dawley, in vivo, po, 30 mg/kg, T max

{"molecule": "CCOC(=O)C1=C[C@@H](OC(CC)CC)[C@H](NC(C)=O)[C@@H](N)C1 [OA, Oseltamivir]", "Tmax / min": 33}

----------
- test: Human crossover pharmacokinetic interaction study of WM (Tamiflu) alone or with CMF1
- Type: in vivo, human (Chinese male healthy volunteers)
- condition.notes: male, human, in vivo, T max
measured.attribute: Tmax

{"compound": "CCOC(=O)C1=C[C@@H](OC(CC)CC)[C@H](NC(C)=O)[C@@H](N)C1 [OA, Oseltamivir]", "measured.attribute": "Tmax", "measurement": "36.6 min"}

----------
- test: Human crossover pharmacokinetic interaction study of WM (Tamiflu) alone or with CMF1
- Type: in vivo, human (Chinese male healthy volunteers)
- condition.notes: male, human, in vivo, C max
- Protocol: Normal healthy Chinese male subjects aged 20–45 years were recruited in this study. […] The study was conducted using a single-center, randomized, open-labeled, multiple dose (5 days), two-treatment, two-period, two-sequence crossover design. […] Urine was also collected (and the volume was recorded) at pre-dose, 0–4, 4–8, and 8–12 h intervals. […] Difference in the median T max between both treatments was evaluated using Wilcoxon signed-rank test. […]

{"compound": "CCOC(=O)C1=C[C@@H](OC(CC)CC)[C@H](NC(C)=O)[C@@H](N)C1 [OA, Oseltamivir]", "Cmax, ng/mL": 67.9}

----------
- test: Human crossover pharmacokinetic interaction study of WM (Tamiflu) alone or with CMF1
- Format: in vivo, human (Chinese male healthy volunteers)
- condition.notes: male, human, in vivo, human, day 5, WM + CMF1, n = 14, arithmetic mean ± SD; read-out: AUC0–12 h
measured.attribute: AUC(0-t)

{"compound": "CCC(CC)O[C@@H]1C=C(C(=O)O)C[C@H](N)[C@H]1NC(C)=O [OC, oseltamivir carboxylate]", "measurement": "4140 ng·h/mL"}

----------
- test: Rat pharmacokinetics of OA and OC in plasma and urine after oral OA alone or with CMF1
- Type: in vivo, Sprague-Dawley rats
- condition.notes: male, Sprague-Dawley, in vivo, po, 30 mg/kg, oral, Group 2: OA 30 mg/kg + CMF1 at 1.95 mg/kg, bid for 5 days, read-out: C max

{"compound": "CCC(CC)O[C@@H]1C=C(C(=O)O)C[C@H](N)[C@H]1NC(C)=O [OC, oseltamivir carboxylate]", "unit.annotation": "ng/mL", "Cmax": 1360}

----------
- test: Human crossover pharmacokinetic interaction study of WM (Tamiflu) alone or with CMF1
- Type: in vivo, human (Chinese male healthy volunteers)
- condition.notes: male, human, in vivo, 75 mg, human, day 5, WM alone, n = 14, arithmetic mean ± SD; read-out: Renal clearance (converted)
measured.attribute: CL renal (mL/min)

{"compound": "CCC(CC)O[C@@H]1C=C(C(=O)O)C[C@H](N)[C@H]1NC(C)=O [OC, oseltamivir carboxylate]", "measurement": 272}
